# Test system: S. enterica
# Assay type: cell-based, Salmonella enterica (ATCC, 14028)
# appliedConditions: micro-broth dilution, 3 h peptide treatment then MHB 18 h, 37 °C, OD 600 nm
Where a SMILES comes first, the peptide text is derived from it.

>  <compound>
CC(C)C[C@H](NC(=O)[C@H](C)NC(=O)[C@H](Cc1ccccc1)NC(=O)[C@@H](N)Cc1ccccc1)C(=O)N[C@@H](CCC(N)=O)C(=O)N[C@@H](CS)C(=O)N[C@@H](C)C(=O)N[C@@H](C)C(=O)N[C@@H](CCCCN)C(=O)N[C@H](C(=O)N[C@@H](CCCNC(=N)N)C(=O)N[C@H](C(=O)N[C@@H](CCCNC(=N)N)C(=O)N[C@@H](CCCNC(=N)N)C(=O)N[C@H](C(=O)O)C(C)C)[C@@H](C)O)[C@@H](C)O [AD12] (H-FFALQCAAKTRTRRV-OH)

>  <MIC (µM) S. enterica>
0.78

$$$$
>  <compound>
CC(C)[C@H](NC(=O)[C@H](CO)NC(=O)[C@H](Cc1ccccc1)NC(=O)[C@H](CC(N)=O)NC(=O)[C@H](CS)NC(=O)[C@H](Cc1ccc(O)cc1)NC(=O)[C@H](Cc1c[nH]cn1)NC(=O)CN)C(=O)N[C@H](C(=O)N1CCC[C@H]1C(=O)N[C@@H](CCCCN)C(=O)N[C@@H](Cc1ccccc1)C(=O)N[C@@H](CCCCN)C(=O)N[C@@H](CCCNC(=N)N)C(=O)N[C@@H](Cc1c[nH]c2ccccc12)C(=O)O)[C@@H](C)O [AD8] (H-GHYCNFSVTPKFKRW-OH)

>  <MIC (µM) S. enterica>
0.78

$$$$
>  <compound>
CC(C)C[C@H](NC(=O)[C@H](CCCNC(=N)N)NC(=O)[C@H](Cc1c[nH]c2ccccc12)NC(=O)[C@H](CCCNC(=N)N)NC(=O)[C@H](CC(C)C)NC(=O)[C@@H](N)Cc1ccccc1)C(=O)N[C@@H](CCCCN)C(=O)N[C@@H](Cc1ccccc1)C(=O)N[C@@H](CCCCN)C(=O)N[C@@H](CO)C(=O)N[C@@H](CCCCN)C(=O)N[C@H](C(=O)N[C@@H](Cc1c[nH]c2ccccc12)C(=O)N[C@@H](CS)C(=O)N1CCC[C@H]1C(=O)O)C(C)C [AD7] (H-FLRWRLKFKSKVWCP-OH)

>  <MIC (µM) S. enterica>
0.78

$$$$
>  <compound>
CSCC[C@H](NC(=O)[C@H](CCCCN)NC(=O)CNC(=O)[C@H](CCCCN)NC(=O)[C@H](Cc1ccc(O)cc1)NC(=O)[C@H](CC(N)=O)NC(=O)[C@H](CC(C)C)NC(=O)[C@H](CCC(N)=O)NC(=O)[C@H](CC(C)C)NC(=O)[C@@H](N)CCCNC(=N)N)C(=O)N[C@@H](Cc1c[nH]c2ccccc12)C(=O)N[C@@H](CS)C(=O)N1CCC[C@H]1C(=O)NCC(=O)N[C@@H](Cc1c[nH]c2ccccc12)C(=O)O [AD11] (H-RLQLNYKGKMWCPGW-OH)

>  <MIC (µM) S. enterica>
1.56

$$$$
